# SYSTEM_TESTED: T1, Axl protein (human, UniProt P30530 26-451)
# T1 construct: extracellular domain; also called human Axl; hAxl
# T1 sequence (looked up): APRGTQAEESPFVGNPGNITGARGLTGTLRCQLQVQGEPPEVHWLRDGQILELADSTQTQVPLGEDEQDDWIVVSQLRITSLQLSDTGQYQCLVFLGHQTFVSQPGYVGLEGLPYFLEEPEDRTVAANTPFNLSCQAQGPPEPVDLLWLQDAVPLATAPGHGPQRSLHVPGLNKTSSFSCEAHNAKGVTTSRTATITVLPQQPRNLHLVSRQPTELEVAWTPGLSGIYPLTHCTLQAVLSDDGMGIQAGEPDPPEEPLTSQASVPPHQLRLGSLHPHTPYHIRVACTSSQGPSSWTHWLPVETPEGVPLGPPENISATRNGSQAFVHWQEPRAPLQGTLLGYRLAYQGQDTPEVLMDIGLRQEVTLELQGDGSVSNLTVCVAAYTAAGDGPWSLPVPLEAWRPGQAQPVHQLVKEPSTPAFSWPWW
# EXPERIMENT: ELISA, 1:3 dilution, pH 6.0 over pH 7.4
Task for the reader: assign each of the following binders its reported Affinity ELISA CPE mutant ratio (1:3, pH 6.0/7.4).
Enter your answer as a number in ratio; do not include the unit.

Memo: HC-W110P (antibody, V domains shown) VH: EVQLVQSGAEVKKPGATVKISCKVSGYSFTGHTMNWIRQPPGKGLEWIGLIKPSNGGTSYNQKFKGRVTISADKSISTAYLQWSSLKASDTAMYYCAHGHYESYFAMDYPGQGTLVTVSS VL: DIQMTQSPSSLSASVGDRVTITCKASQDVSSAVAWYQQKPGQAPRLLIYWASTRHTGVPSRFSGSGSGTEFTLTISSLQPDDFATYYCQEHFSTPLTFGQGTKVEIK , reported Affinity ELISA CPE mutant ratio (1:3, pH 6.0/7.4): 6.49

Memo: HC-W110A (antibody, V domains shown) VH: EVQLVQSGAEVKKPGATVKISCKVSGYSFTGHTMNWIRQPPGKGLEWIGLIKPSNGGTSYNQKFKGRVTISADKSISTAYLQWSSLKASDTAMYYCAHGHYESYFAMDYAGQGTLVTVSS VL: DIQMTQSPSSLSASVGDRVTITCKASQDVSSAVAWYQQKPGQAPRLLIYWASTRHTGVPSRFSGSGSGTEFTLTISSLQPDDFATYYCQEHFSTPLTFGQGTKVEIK , reported Affinity ELISA CPE mutant ratio (1:3, pH 6.0/7.4): 7.91
